Reference source: patent US20240246918A1

Reported pIC50 by item:
Molecular target: human eIF4E protein (Homo sapiens, UniProt P06730)
Sequence (P06730 whole entry): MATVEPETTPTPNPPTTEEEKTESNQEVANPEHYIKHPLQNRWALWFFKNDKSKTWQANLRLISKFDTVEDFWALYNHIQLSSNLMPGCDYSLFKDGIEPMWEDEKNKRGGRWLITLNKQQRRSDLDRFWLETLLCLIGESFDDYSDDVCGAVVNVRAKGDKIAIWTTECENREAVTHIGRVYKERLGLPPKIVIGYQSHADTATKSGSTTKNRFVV
pIC50: −log10 of the molar value.

>  <compound>
Cc1cc(-c2cc(Cl)ccc2OCCn2c(C)nc3c(c2=O)C[C@](C)(N2CCC[C@@]4(C2)CC4(F)F)CC3)c2scc(C(=O)O)c2n1 (single isomer, unassigned)

>  <measuredOn>
human eIF4E protein (Homo sapiens, UniProt P06730)

>  <pIC50>
6.30 to 7.00

$$$$
>  <compound>
Cc1cc(-c2cc(Cl)ccc2OCCn2c(C)nc3c(c2=O)C[C@@H](N2CCC(c4cc(F)cc(F)c4F)CC2)CC3)c2scc(C(=O)O)c2n1 (single isomer, unassigned)

>  <measuredOn>
human eIF4E protein (Homo sapiens, UniProt P06730)

>  <pIC50>
> 7.00

$$$$
>  <compound>
Cc1nc2c(c(=O)n1CC#Cc1ccc(Cl)cc1-c1ccnc3c(C(=O)O)csc13)CC(N1CC(F)(F)C1)CC2 (centres unmarked)

>  <measuredOn>
human eIF4E protein (Homo sapiens, UniProt P06730)

>  <pIC50>
6.30 to 7.00

$$$$
>  <compound>
Cc1cc(-c2cc(Cl)ccc2OCCn2c(C)nc3c(c2=O)CC(N(C)CC(F)F)CC3)c2scc(C(=O)O)c2n1 (centres unmarked)

>  <measuredOn>
human eIF4E protein (Homo sapiens, UniProt P06730)

>  <pIC50>
> 7.00

$$$$
>  <compound>
Cc1cc(-c2cc(Cl)ccc2OCCn2c(C)nc3c(c2=O)C[C@H](N2CCC(COC(F)(F)F)CC2)CC32CC2)c2scc(C(=O)O)c2n1 (single isomer, unassigned)

>  <measuredOn>
human eIF4E protein (Homo sapiens, UniProt P06730)

>  <pIC50>
> 7.00

$$$$

###

Target: human eIF4E protein (Homo sapiens)
Construct: purchased Novus NBP-45314
Assay: Biochemical competitive binding assay (TR-FRET competition, EDA-m7GDP-ATTO-647N probe)
Details: read-out: hEIF4E TR-FRET IC50
Reported IC50 by item:

>  <molecule>
Cc1cc(-c2ccc(Cl)cc2OCCn2c(C)nc3c(c2=O)C[C@H](N(C)[C@H]2C[C@@](C)(O)C2)CC3)c2scc(C(=O)O)c2n1 (single isomer, unassigned) [Compound 229]

>  <measuredOn>
human eIF4E protein (Homo sapiens)

>  <IC50>
< 0.1 µM

$$$$
>  <molecule>
Cc1cc(-c2cc(Cl)ccc2OCCn2c(C)nc3c(c2=O)CC(N2CCC(F)(F)C2)CC3)c2scc(C(=O)O)c2n1 (centres unmarked) [Compound 53]

>  <measuredOn>
human eIF4E protein (Homo sapiens)

>  <IC50>
< 0.1 µM

$$$$
>  <molecule>
Cc1cc(-c2cc(Cl)ccc2OCCn2c(C)nc3c(c2=O)C[C@H](N2CCC(c4ncccc4F)CC2)CC3)c2scc(C(=O)O)c2n1 (single isomer, unassigned) [Compound 444]

>  <measuredOn>
human eIF4E protein (Homo sapiens)

>  <IC50>
< 0.1 µM

$$$$
>  <molecule>
Cc1cc(-c2cc(Cl)ccc2OCCn2c(C)nc3c(c2=O)CC(N2CCC4(CC2)CC(O)(C(F)(F)F)C4)CC3)c2scc(C(=O)O)c2n1 (centres unmarked) [Compound 212]

>  <measuredOn>
human eIF4E protein (Homo sapiens)

>  <IC50>
< 0.1 µM

$$$$
>  <molecule>
COC1CCN(C2CCc3nc(C)n(CCOc4ccc(Cl)cc4-c4cc(C)nc5c(C(=O)O)csc45)c(=O)c3C2)CC1 (centres unmarked) [Compound 12]

>  <measuredOn>
human eIF4E protein (Homo sapiens)

>  <IC50>
< 0.1 µM

$$$$
>  <molecule>
Cc1cc(-c2cc(Cl)ccc2OCCn2c(C)nc3c(c2=O)C[C@@H](N2CCC(C(F)(F)F)CC2)CC3)c2scc(C(=O)O)c2n1 (single isomer, unassigned) [Compound 374]

>  <measuredOn>
human eIF4E protein (Homo sapiens)

>  <IC50>
< 0.1 µM

$$$$
>  <molecule>
Cc1cc(-c2cc(Cl)c(=O)[nH]c2OCCn2c(C)nc3c(c2=O)CC(N(C)CC2CC(F)(F)C2)CC3)c2scc(C(=O)O)c2n1 (single isomer, unassigned) [Compound 238]

>  <measuredOn>
human eIF4E protein (Homo sapiens)

>  <IC50>
0.5 to 5 µM

$$$$
>  <molecule>
COC1CCN(C2CCc3nc(C)n(CC#Cc4ccc(Cl)cc4-c4ccnc5c(C(=O)NS(C)(=O)=O)csc45)c(=O)c3C2)CC1 (single isomer, unassigned) [Compound 414]

>  <measuredOn>
human eIF4E protein (Homo sapiens)

>  <IC50>
< 0.1 µM

$$$$
>  <molecule>
COC1(C(F)(F)F)CC2CCC(C1)N2[C@H]1CCc2nc(C)n(CCOc3ccc(Cl)cc3-c3cc(C)nc4c(C(=O)O)csc34)c(=O)c2C1 (single isomer, unassigned) [Compound 503]

>  <measuredOn>
human eIF4E protein (Homo sapiens)

>  <IC50>
0.1 to 0.5 µM

$$$$
>  <molecule>
Cc1cc(-c2cc(Cl)ccc2OCCn2c(C)nc3c(c2=O)CC(N2CCc4ncsc4C2)CC3)c2scc(C(=O)O)c2n1 (centres unmarked) [Compound 164]

>  <measuredOn>
human eIF4E protein (Homo sapiens)

>  <IC50>
< 0.1 µM

$$$$
>  <molecule>
Cc1cc(-c2cc(Cl)ccc2OCCn2c(C)nc3c(c2=O)CC(N(C)C2CN(CC(F)(F)F)C2)CC3)c2scc(C(=O)O)c2n1 (centres unmarked) [Compound 64]

>  <measuredOn>
human eIF4E protein (Homo sapiens)

>  <IC50>
< 0.1 µM

$$$$
